- Study target: cell surface receptors on glycanase treated PBMC
- Assay comment: saturation binding of 125I-RANTES-heparin complexes to glycanase treated activated human PBMC, gamma counting, nonlinear curve fitting after subtracting non-specific binding
Property measured: pKd
One number for each entry, as −log10 of the molar value.

What pKd value was documented for this substance, 125I-labeled RANTES-heparin complexes (from UniProt P13501 24-91) (ligand) ?
8.82
